Assay: Blood and cerebrospinal fluid pharmacokinetics after acute intraperitoneal administration in freely moving rats
Type: in vivo
Details: rat, ip, acute intraperitoneal, 20, 40 and 80 mg/kg, cerebrospinal fluid, read-out: Tmax mean range, CSF
Below, each entry is listed with its recorded Tmax.

| MOLECULE | Tmax |
| --- | --- |
| CC[C@@H](C(N)=O)N1CCCC1=O | 1.33 to 1.92 h |

Now examine the next entry.
INPUT: I'd like to know its Tmax. The molecule in question is CC[C@@H](C(=O)NC(=O)OC(C)OC(=O)CCCC[C@@H]1CCSS1)N1CCCC1=O (some centres unmarked)
OUTPUT: 2.14 to 2.83 h

---

Below, each entry is listed with its recorded Tmax.
Test: Blood and cerebrospinal fluid pharmacokinetics after acute intraperitoneal administration in freely moving rats
Format: in vivo
Conditions: rat, ip, acute intraperitoneal, 20, 40 and 80 mg/kg, serum, read-out: time to maximum concentration (Tmax) mean range, serum

| COMPOUND | REPORTED MEASUREMENT |
| --- | --- |
| CC[C@@H](C(=O)NC(=O)OC(C)OC(=O)CCCC[C@@H]1CCSS1)N1CCCC1=O (some centres unmarked) | 28.2 to 53.4 min |

Now examine the next entry.
INPUT: I'd like to know its Tmax. The compound in question is "CC[C@@H](C(N)=O)N1CCCC1=O"
OUTPUT: 15 to 30 min
